assay metric: melting point

Solved cases below.
>>> obs_value("COc1cc2ncc3c(N)c(-c4nnn[nH]4)sc3c2cc1OC [Example 33]")
"252 to 255 °C"
>>> obs_value("COC(=O)c1sc2c(cnc3cc(OC)c(OCCCN4CCOCC4)cc32)c1N [Example 15]")
"188 to 190 °C"
>>> obs_value("COC(=O)c1sc2c(cnc3cc(F)c(F)cc32)c1N [Example 35]")
"298 to 300 °C"
>>> obs_value("COc1cc2ncc3c(N)c(C(=O)C(F)(F)F)sc3c2cc1OC [Example 5]")
"230 to 234 °C"

// lookup melting point for COC(=O)c1sc2c(cnc3cc(OC)c(OC)cc32)c1NC(=O)c1ccc(OC)cc1 [Example 16]
255 to 258 °C

Param item: COC(=O)c1sc2c(cnc3cc(OC)c(O)cc32)c1N [Example 10]
277 to 280 °C

---

# tested system: Human PI3Kγ (p120γ) (Homo sapiens)
# Construct: His (N); host or cells: Baculovirus infected insect cells (printed 'SP)', probably a misprint of Sf9)
# method: PI3K isoform HTRF enzyme assay, PI3Kγ
# Format: biochemical
# stated conditions: Table 2; read-out: IC50 against PI3Kγ isoform
assay metric: IC50 (µM)
The response must be a number in µM with no trailing unit.

Recall the recorded IC50 for `COC(=O)c1sc2c(cnc3cc(OC)c(OC)cc32)c1NC(=O)c1ccc(F)cc1` with Human PI3Kγ (p120γ) (Homo sapiens) and state it.
1

---

assay metric: melting point

>>> obs_value("Nc1c(C(=O)c2ccc(F)cc2)sc2c1cnc1ccc(F)cc12")
"276 to 278 °C"

Looking for the measured melting point of `COC(=O)c1sc2c(cnc3cc(OC)c(OCc4ccccc4)cc32)c1N` , can you help?
272 to 274 °C

Repeat with `COc1cc2ncc3c(N)c(C(C)=O)sc3c2cc1OC`
260 to 263 °C

Record: `N#Cc1sc2c(cnc3ccc(F)cc32)c1N`
> 300 °C

Also check `COC(=O)c1sc2c(cnc3cc(OC)c(OC)cc32)c1NC(=O)C(=O)Nc1ccc(N2CCN(C)CC2)cc1`
240 to 246 °C

Would you kindly repeat that for `COc1ccc(C(=O)c2sc3c(cnc4ccc(F)cc43)c2N)cc1` ?
256 to 258 °C

And for `N#Cc1sc2c(cnc3cc(F)c(F)cc32)c1N` ?
300 to 301 °C

Would you mind doing `COC(=O)c1sc2c(cnc3cc(OCCN4CCOCC4)c(OC)cc32)c1N` as well?
158 to 160 °C

Now consider `COC(=O)c1sc2c(cnc3cc(OC)c(OC)cc32)c1/N=C/N(C)C` .
173 to 175 °C

---

# tested system: Human PI3Kα (p110α/p85α) (Homo sapiens)
# Construct: N-terminal GST-tagged recombinant full-length human p110α; GST (N)
# Sequence (P42336 whole entry): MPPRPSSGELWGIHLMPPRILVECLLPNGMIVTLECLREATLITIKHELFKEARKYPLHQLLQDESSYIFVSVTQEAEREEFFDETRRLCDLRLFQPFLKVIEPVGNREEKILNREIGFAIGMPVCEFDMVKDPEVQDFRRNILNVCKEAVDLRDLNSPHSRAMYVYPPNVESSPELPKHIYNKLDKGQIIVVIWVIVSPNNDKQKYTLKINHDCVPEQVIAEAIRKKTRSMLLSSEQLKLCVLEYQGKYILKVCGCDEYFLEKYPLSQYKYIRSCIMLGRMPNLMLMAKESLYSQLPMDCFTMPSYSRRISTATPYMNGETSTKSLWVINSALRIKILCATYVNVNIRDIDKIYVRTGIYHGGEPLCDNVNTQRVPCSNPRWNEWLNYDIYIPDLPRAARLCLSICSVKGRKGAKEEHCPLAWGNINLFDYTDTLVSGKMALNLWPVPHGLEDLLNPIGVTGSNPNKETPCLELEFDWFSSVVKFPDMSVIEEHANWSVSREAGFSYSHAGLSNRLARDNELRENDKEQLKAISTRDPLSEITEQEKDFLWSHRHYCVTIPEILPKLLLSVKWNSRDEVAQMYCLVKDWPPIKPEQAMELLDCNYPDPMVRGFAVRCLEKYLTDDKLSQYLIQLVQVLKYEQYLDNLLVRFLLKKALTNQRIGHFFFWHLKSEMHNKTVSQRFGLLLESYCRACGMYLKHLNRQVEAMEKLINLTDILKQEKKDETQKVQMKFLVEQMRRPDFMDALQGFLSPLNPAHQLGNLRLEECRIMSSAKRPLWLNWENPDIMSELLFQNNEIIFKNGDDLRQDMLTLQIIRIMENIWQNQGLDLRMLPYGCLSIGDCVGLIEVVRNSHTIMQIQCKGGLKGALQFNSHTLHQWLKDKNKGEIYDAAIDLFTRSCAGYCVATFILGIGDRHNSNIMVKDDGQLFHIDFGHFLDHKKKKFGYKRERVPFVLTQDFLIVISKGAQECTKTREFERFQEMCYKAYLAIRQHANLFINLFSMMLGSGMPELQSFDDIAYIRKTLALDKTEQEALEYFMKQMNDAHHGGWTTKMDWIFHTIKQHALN
# Sequence (P27986 whole entry partner): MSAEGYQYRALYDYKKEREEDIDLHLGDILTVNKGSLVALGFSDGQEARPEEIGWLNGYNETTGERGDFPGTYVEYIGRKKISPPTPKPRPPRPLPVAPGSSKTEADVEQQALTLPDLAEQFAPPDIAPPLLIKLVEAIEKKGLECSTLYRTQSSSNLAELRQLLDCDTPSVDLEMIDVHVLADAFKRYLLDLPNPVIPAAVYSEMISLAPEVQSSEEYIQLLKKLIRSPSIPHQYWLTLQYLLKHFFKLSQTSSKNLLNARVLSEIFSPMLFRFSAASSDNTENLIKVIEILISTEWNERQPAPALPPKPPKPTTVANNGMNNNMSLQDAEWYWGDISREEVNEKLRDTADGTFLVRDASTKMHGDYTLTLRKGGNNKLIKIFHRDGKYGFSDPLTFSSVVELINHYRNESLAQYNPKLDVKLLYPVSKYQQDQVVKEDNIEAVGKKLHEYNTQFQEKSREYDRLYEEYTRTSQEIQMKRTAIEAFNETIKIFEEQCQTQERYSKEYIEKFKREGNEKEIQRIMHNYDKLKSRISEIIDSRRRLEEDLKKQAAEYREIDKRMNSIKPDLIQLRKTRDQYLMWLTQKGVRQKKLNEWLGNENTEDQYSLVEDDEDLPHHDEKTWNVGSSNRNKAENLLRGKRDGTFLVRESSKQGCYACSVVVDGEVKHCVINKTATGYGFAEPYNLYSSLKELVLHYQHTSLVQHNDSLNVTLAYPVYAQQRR
# method: PI3K isoform HTRF enzyme assay, PI3Kα
# stated conditions: 10 μM PIP2, 10 μM ATP, HTRF; read-out: IC50 against PI3Kα
assay metric: IC50 (µM)
Please state the figure in µM; there is no need to write the unit.

Look at this compound and give its reported IC50. `COC(=O)c1sc2c(cnc3cc(OC)c(OC)cc32)c1NC(=O)c1ccc(F)cc1`
25.3

---

# tested system: Human PI3Kγ (p120γ) (Homo sapiens, UniProt P48736)
# Construct: His (N); host or cells: Baculovirus infected insect cells (printed 'SP)', probably a misprint of Sf9)
# Sequence (P48736 whole entry): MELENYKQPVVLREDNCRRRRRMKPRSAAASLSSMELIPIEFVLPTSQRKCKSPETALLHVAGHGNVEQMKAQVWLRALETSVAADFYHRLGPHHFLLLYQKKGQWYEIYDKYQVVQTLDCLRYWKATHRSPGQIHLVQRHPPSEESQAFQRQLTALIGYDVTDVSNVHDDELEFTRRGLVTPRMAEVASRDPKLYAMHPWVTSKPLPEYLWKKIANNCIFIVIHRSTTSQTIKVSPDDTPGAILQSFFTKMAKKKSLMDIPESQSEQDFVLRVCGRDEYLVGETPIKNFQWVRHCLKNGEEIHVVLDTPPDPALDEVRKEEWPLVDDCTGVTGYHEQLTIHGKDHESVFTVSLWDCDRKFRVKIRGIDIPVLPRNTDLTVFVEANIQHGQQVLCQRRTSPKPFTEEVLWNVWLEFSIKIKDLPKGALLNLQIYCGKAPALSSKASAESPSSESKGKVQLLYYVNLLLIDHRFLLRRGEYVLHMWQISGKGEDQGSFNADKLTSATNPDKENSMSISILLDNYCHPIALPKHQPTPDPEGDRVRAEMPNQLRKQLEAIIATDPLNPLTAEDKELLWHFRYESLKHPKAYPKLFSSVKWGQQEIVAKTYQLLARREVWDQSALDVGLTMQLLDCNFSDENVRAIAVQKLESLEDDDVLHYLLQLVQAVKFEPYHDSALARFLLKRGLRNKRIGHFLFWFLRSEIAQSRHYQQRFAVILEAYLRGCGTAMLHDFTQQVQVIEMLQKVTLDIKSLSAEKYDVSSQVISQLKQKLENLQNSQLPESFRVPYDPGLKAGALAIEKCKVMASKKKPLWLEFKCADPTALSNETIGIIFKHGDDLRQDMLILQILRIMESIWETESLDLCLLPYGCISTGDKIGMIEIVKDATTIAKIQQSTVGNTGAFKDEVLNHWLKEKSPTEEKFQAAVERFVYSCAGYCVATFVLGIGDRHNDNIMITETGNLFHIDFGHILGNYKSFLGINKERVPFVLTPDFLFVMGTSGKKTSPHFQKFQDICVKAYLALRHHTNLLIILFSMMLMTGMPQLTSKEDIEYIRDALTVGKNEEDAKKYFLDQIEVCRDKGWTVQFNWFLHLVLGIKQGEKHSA
# method: PI3K isoform HTRF enzyme assay, PI3Kγ
# Format: biochemical
# stated conditions: 10 μM PIP2, 10 μM ATP, HTRF; read-out: IC50 against PI3Kγ
assay metric: IC50 (nM)
Output spec: scalar in nM, unitless text.

// lookup IC50 | system=Human PI3Kγ (p120γ) (Homo sapiens, UniProt P48736) | key= COC(=O)c1sc2c(cnc3cc(OC)c(OC)cc32)c1NC(=O)c1ccc(F)cc1 [Example 18]
1010

---

This section presents molecules with their documented melting point values.

Recorded results for 8 molecules are shown here.
>>> obs_value("COC(=O)c1sc2c(cnc3cc(OC)c(OC)cc32)c1NC(=O)c1ccc(Cl)c([N+](=O)[O-])c1")
"260 to 262 °C"
>>> obs_value("COC(=O)c1sc2c(cnc3cc(OC)c(OC)cc32)c1NC(=O)c1ccccc1[N+](=O)[O-]")
"178 to 181 °C"
>>> obs_value("COC(=O)c1sc2c(cnc3cc(O)c(OC)cc32)c1N")
"244 to 246 °C"
>>> obs_value("COC(=O)c1sc2c(cnc3cc(OC)c(OC)cc32)c1NC(=O)c1ccc(F)cc1")
"196 to 198 °C"
>>> obs_value("COC(=O)c1sc2c(cnc3cc(OC)c(OC)cc32)c1NC(=O)c1ccccc1")
"205 to 208 °C"
>>> obs_value("COC(=O)c1sc2c(cnc3cc(OCCCN4CCCCC4)c(OC)cc32)c1N")
"127 to 130 °C"
>>> obs_value("COc1cc2ncc3c(N)c(C(=O)c4ccc(F)cc4)sc3c2cc1OC")
"286 to 288 °C"
>>> obs_value("COc1cc2ncc3c(N)c(C#N)sc3c2cc1OC")
"314 to 316 °C"

# next molecule below
Quick check: melting point of `COC(=O)c1sc2c(cnc3cc(OC)c(OC)cc32)c1NC(=O)C(F)(F)F` ?
224 to 230 °C

---

Counter-ions that a name gives are not always drawn.
assay metric: melting point

Example entries begin here.
>>> obs_value("COC(=O)c1sc2c(cnc3cc(OC)c(OC)cc32)c1NC(=O)c1ccccc1F")
"237 to 240 °C"
>>> obs_value("COc1ccc(C(=O)c2sc3c(cnc4cc(F)c(F)cc43)c2N)cc1")
"258 to 260 °C"
>>> obs_value("COC(=O)c1sc2c(c[n+](C)c3cc(OC)c(OC)cc23)c1N (as salt: iodide)")
"249 to 251 °C"
>>> obs_value("COC(=O)c1sc2c(cnc3cc(OC)c(OC)cc32)c1NC(=O)C(=O)N1CCOCC1")
"232 to 234 °C"
>>> obs_value("COC(=O)c1sc2c(cnc3cc(OC)c(OC)cc32)c1N")
"260 to 262 °C"
>>> obs_value("COC(=O)c1sc2c(cnc3cc(OC)c(OC)cc32)c1NC(=O)C(=O)N1CCN(c2ccncc2)CC1")
"245 to 248 °C"
>>> obs_value("COC(=O)c1sc2c(cnc3cc(OCc4ccccc4)c(OC)cc32)c1N")
"221 to 223 °C"
>>> obs_value("COC(=O)c1sc2c(cnc3cc(OCCCN4CCOCC4)c(OC)cc32)c1N")
"117 to 120 °C"

What value of melting point has been reported for the following compound? `CCOC(=O)c1sc2c(cnc3cc(OC)c(OC)cc32)c1N`
215 to 218 °C

---

Let's look at some molecules and their measured melting point.

Record excerpt, results attached:
>>> obs_value("Nc1c(C(=O)c2ccc(F)cc2)sc2c1cnc1cc(F)c(F)cc12")
"> 320 °C"
>>> obs_value("COC(=O)c1sc2c(cnc3cc(OC(=O)N4CCN(C)CC4)c(OC)cc32)c1N")
"147 to 150 °C"

With those in mind, consider the next molecule.
What melting point value was documented for this molecule, `COC(=O)c1sc2c(cnc3ccc(F)cc32)c1N` ?
270 to 272 °C
